Listed below: MIC values for each entry.
System: Enterobacter cloacae IID 977
ASSAY_METHOD_TEXT: Antibacterial activity (MIC), standard agar dilution streak method
Format: cell-based
ASSAY_SETUP: IID977; Enterobacter cloacae IID 977; read-out: Minimum inhibitory concentration

COMPOUND | MEASUREMENT_UNIT | READOUT_QUALIFIER | MIC
Cl.O=C(O)c1cn(CCO)c2c(F)c(N3CCNCC3)c(F)cc2c1=O | µg/mL | = | 0.39
Cl.O=C(O)c1cn(CCF)c2c(F)c(N3CCNCC3)c(F)cc2c1=O | µg/mL | ≤ | 0.05
Cl.Cn1cc(C(=O)O)c(=O)c2cc(F)c(N3CCNCC3)c(F)c21 | µg/mL | = | 0.1
C=CCn1cc(C(=O)O)c(=O)c2cc(F)c(N3CCNCC3)c(F)c21.Cl | µg/mL | = | 0.78
CCCn1cc(C(=O)O)c(=O)c2cc(F)c(N3CCNCC3)c(F)c21.Cl | µg/mL | = | 0.78
CCn1cc(C(=O)O)c(=O)c2cc(F)c(N3CCCC(O)C3)c(F)c21 (centres unmarked) | µg/mL | = | 6.25
C=CCN1CCN(c2c(F)cc3c(=O)c(C(=O)O)cn(CC)c3c2F)CC1 | µg/mL | = | 1.56
CCN1CCN(c2c(F)cc3c(=O)c(C(=O)O)cn(CC)c3c2F)CC1 | µg/mL | = | 0.39

====

Measured MIC, listed per entry.
Tested on: Proteus vulgaris 3167
ASSAY_METHOD_TEXT: Antibacterial activity (MIC), standard agar dilution streak method
Assay type: cell-based
ASSAY_SETUP: Proteus vulgaris 3167; read-out: Minimum inhibitory concentration

COMPOUND | TARGET_SYSTEM | READOUT_QUALIFIER | MIC [µg/mL]
Cl.O=C(O)c1cn(CCO)c2c(F)c(N3CCNCC3)c(F)cc2c1=O [Example 14] | Proteus vulgaris 3167 | = | 0.39
Cl.O=C(O)c1cn(CCF)c2c(F)c(N3CCNCC3)c(F)cc2c1=O [Example 4] | Proteus vulgaris 3167 | ≤ | 0.05
CCCn1cc(C(=O)O)c(=O)c2cc(F)c(N3CCNCC3)c(F)c21.Cl [Example 2] | Proteus vulgaris 3167 | ≤ | 0.05
CCN1CCN(c2c(F)cc3c(=O)c(C(=O)O)cn(CC)c3c2F)CC1 [Example 7] | Proteus vulgaris 3167 | ≤ | 0.05
C=CCn1cc(C(=O)O)c(=O)c2cc(F)c(N3CCNCC3)c(F)c21.Cl [Example 3] | Proteus vulgaris 3167 | = | 0.1

====

System: Alcaligenes faecalis 0104002
ASSAY_METHOD_TEXT: Antibacterial activity (MIC), standard agar dilution streak method
Assay type: cell-based
ASSAY_SETUP: Alcaligenes faecalis 0104002; read-out: Minimum inhibitory concentration

STRUCTURE_AS_SMILES | MIC (µg/mL)
Cl.O=C(O)c1cn(CCF)c2c(F)c(N3CCNCC3)c(F)cc2c1=O | 3.13
C=CCn1cc(C(=O)O)c(=O)c2cc(F)c(N3CCNCC3)c(F)c21.Cl | 3.13
Cl.O=C(O)c1cn(CCO)c2c(F)c(N3CCNCC3)c(F)cc2c1=O | 100
CCN1CCN(c2c(F)cc3c(=O)c(C(=O)O)cn(CC)c3c2F)CC1 | 1.56
CCCn1cc(C(=O)O)c(=O)c2cc(F)c(N3CCNCC3)c(F)c21.Cl | 1.56
Cl.Cn1cc(C(=O)O)c(=O)c2cc(F)c(N3CCNCC3)c(F)c21 | 6.25

====

Tested on: Serratia marcescens IID 618
ASSAY_METHOD_TEXT: Antibacterial activity (MIC), standard agar dilution streak method
Assay type: cell-based
ASSAY_SETUP: IID618; Serratia marcescens IID 618; read-out: Minimum inhibitory concentration
PARAMETER: MIC (µg/mL)

STRUCTURE_AS_SMILES | TARGET_SYSTEM | TEST_VALUE
CCN1CCN(c2c(F)cc3c(=O)c(C(=O)O)cn(CC)c3c2F)CC1 | Serratia marcescens IID 618 | 0.39
Cl.O=C(O)c1cn(CCF)c2c(F)c(N3CCNCC3)c(F)cc2c1=O | Serratia marcescens IID 618 | 0.39
CCCn1cc(C(=O)O)c(=O)c2cc(F)c(N3CCNCC3)c(F)c21.Cl | Serratia marcescens IID 618 | 0.39
Cl.Cn1cc(C(=O)O)c(=O)c2cc(F)c(N3CCNCC3)c(F)c21 | Serratia marcescens IID 618 | 0.1
Cl.O=C(O)c1cn(CCO)c2c(F)c(N3CCNCC3)c(F)cc2c1=O | Serratia marcescens IID 618 | 6.25
C=CCn1cc(C(=O)O)c(=O)c2cc(F)c(N3CCNCC3)c(F)c21.Cl | Serratia marcescens IID 618 | 0.39

====

A collection of compounds and their measured MIC
System: Yersinia enterocolitica IID 981
ASSAY_METHOD_TEXT: Antibacterial activity (MIC), standard agar dilution streak method
Type: cell-based
ASSAY_SETUP: Yersinia enterocolitica, IID981, Yersinia enterocolitica IID 981; read-out: Minimum inhibitory concentration

COMPOUND | MEASUREMENT_UNIT | MIC
CCn1cc(C(=O)O)c(=O)c2cc(F)c(N3CCCC3)c(F)c21 | µg/mL | 0.39
CCn1cc(C(=O)O)c(=O)c2cc(F)c(N3CCC(O)CC3)c(F)c21 | µg/mL | 0.78
CCn1cc(C(=O)O)c(=O)c2cc(F)c(N3CCN(CCO)CC3)c(F)c21 | µg/mL | 0.39
CN1CCN(c2c(F)cc3c(=O)c(C(=O)O)cn(CCF)c3c2F)CC1.Cl | µg/mL | 0.1
CCn1cc(C(=O)O)c(=O)c2cc(F)c(N3CCC(N(C)C)CC3)c(F)c21 | µg/mL | 0.78
C=CCN1CCN(c2c(F)cc3c(=O)c(C(=O)O)cn(CC)c3c2F)CC1 | µg/mL | 0.78
CCn1cc(C(=O)O)c(=O)c2cc(F)c(N3CCCC(O)C3)c(F)c21 (centres unmarked) | µg/mL | 1.56
CCn1cc(C(=O)O)c(=O)c2cc(F)c(N3CCOCC3)c(F)c21 | µg/mL | 0.39

====

Tested on: Proteus vulgaris 3167
ASSAY_METHOD_TEXT: Antibacterial activity (MIC), standard agar dilution streak method
Format: cell-based
ASSAY_SETUP: Proteus vulgaris, 3167, Proteus vulgaris 3167; read-out: Minimum inhibitory concentration

COMPOUND | TARGET_SYSTEM | READOUT_QUALIFIER | MIC / µg/mL
CCn1cc(C(=O)O)c(=O)c2cc(F)c(N3CCC(N(C)C)CC3)c(F)c21 | Proteus vulgaris 3167 | = | 0.1
CCn1cc(C(=O)O)c(=O)c2cc(F)c(N3CCCC3)c(F)c21 | Proteus vulgaris 3167 | ≤ | 0.05
CCn1cc(C(=O)O)c(=O)c2cc(F)c(N3CCOCC3)c(F)c21 | Proteus vulgaris 3167 | ≤ | 0.05
C=CCN1CCN(c2c(F)cc3c(=O)c(C(=O)O)cn(CC)c3c2F)CC1 | Proteus vulgaris 3167 | = | 0.2
CCn1cc(C(=O)O)c(=O)c2cc(F)c(N3CCN(CCO)CC3)c(F)c21 | Proteus vulgaris 3167 | = | 0.1
CCn1cc(C(=O)O)c(=O)c2cc(F)c(N3CCC(O)CC3)c(F)c21 | Proteus vulgaris 3167 | ≤ | 0.05
CCn1cc(C(=O)O)c(=O)c2cc(F)c(N3CCCC(O)C3)c(F)c21 (centres unmarked) | Proteus vulgaris 3167 | = | 0.1
CN1CCN(c2c(F)cc3c(=O)c(C(=O)O)cn(CCF)c3c2F)CC1.Cl | Proteus vulgaris 3167 | ≤ | 0.05
